Just for reference, PubChem BioAssay is where these values come from.

Biological target: Luciferin 4-monooxygenase (Photinus pyralis)
Assay: inhibition of purified Photinus pyralis luciferase – biochemical, luminescence, purified enzyme, 2006 set, primary screen (AID 1141);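 note: cell-free assay with purified firefly luciferase at 100 ng per well in PBS; test concentration not given here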
Details: purified firefly luciferase, SteadyGlo luminescence, 30 min; higher = more signal, called active from +8 up or from −8 down
metric: z-score
One number for each entry.

Examples with answers:
O=C(O)[C@H](Cc1ccccc1)n1cc(-c2ccccc2)nn1    0.899
O=c1cccc(-c2ccccc2Cl)o1    0.294
COC(=O)C(CC#Cc1ccc2c(c1)[C@]1(C(=O)N2)[C@H](c2ccc(O)cc2)N2[C@H](c3ccccc3)[C@H](c3ccccc3)OC(=O)[C@H]2[C@@H]1C(=O)N1CCN(c2ncccn2)CC1)C(=O)OC    -0.078
CCCCN1CC=CC23O[C@@H]4C=CCCOC(=O)C4[C@H]2C(=O)N(CCCCCO)[C@@H]3C1=O (stereo partly drawn)    -0.469
CC(C)CN1C(=O)[C@@]2(c3ccc([N+](=O)[O-])cc3)CC(=O)N(C3CCCCC3)[C@@H]2c2ccc(CO)cc21    0.791

Parameters: items (list). Returns: z-score for each item.
1. CC=CC(O)C1C=CC2C(=O)N(C)C(=O)C2N1N(c1ccccc1)c1ccccc1 (stereo not drawn)
2. O=C(NC1CC1)[C@@H]1c2ccccc2C(=O)N(Cc2cc(F)cc(C(F)(F)F)c2)[C@H]1c1ccc(CO)cc1
3. COC(=O)[C@@]1(Cc2ccccc2)[C@H]2c3cc(C(=O)N(C)C)n(Cc4ccc(OC)c(OC)c4)c3C[C@H]2CN1C(=O)c1ccccc1

// result
1: 1.36; 2: -0.124; 3: 1.29

====

Test: compound effects on lung adenocarcinoma cell viability – A549, calcein-AM fluorescence, 48 h, basal, profiling panel (AID 1162); note: test concentration not given here
Conditions: higher = more signal
The threshold is inclusive: z-score of exactly -0.4 counts as T; values below receive F.

Study these solved cases before continuing.
COc1ccc(C(=O)Nc2ccc(CN3C(=O)[C@]4(O[C@H](CC(=O)N5CCC[C@H]5CO)[C@@H]([Si](C)(C)c5ccc(OC)cc5)[C@@H]4C)c4ccccc43)cc2)cc1    F
CC(C)Cc1ccc(CN2CC[C@@H](N)C2)cc1    T
C=CCN1C(=O)[C@]2(O[C@H](CCO)[C@@H]([Si](C)(C)c3ccc(OC)cc3)[C@@H]2C)c2cc(N(C=O)c3ccccc3)ccc21    F
COc1ccc(NN2C(C(O)c3ccc(N(C)C)cc3)C=CC3C(=O)N(C4CCCCC4)C(=O)C32)cc1 (stereo not drawn)    F
C#CCN1[C@@H](Cc2ccc(O)cc2)C(=O)O[C@H](Cc2ccccc2)[C@@H]1/C=C/C1CC1    F

// query Please tell me: is the compound COc1ccc(NC(=O)O[C@H]2[C@H](OC(=O)c3cc4ccccc4[nH]3)[C@@H](OC(=O)c3cc4ccccc4[nH]3)[C@@H](OC)O[C@@H]2CO)cc1 at or over -0.4 in terms of z-score?
// result T

// query Is z-score at least -0.4? Consider CC(C)C(=C=CC[C@H](O)c1ccc(CO)o1)CCO
// result T

====

Target: Luciferin 4-monooxygenase (Photinus pyralis)
Test: inhibition of purified Photinus pyralis luciferase – biochemical, luminescence, purified enzyme, 2006 set, primary screen (AID 1141);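 note: cell-free assay with purified firefly luciferase at 100 ng per well in PBS; test concentration not given here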
Details: purified firefly luciferase, SteadyGlo luminescence, 30 min; higher = more signal, called active from +8 up or from −8 down
Consider the following compounds; for each one, report its z-score.
One number for each entry.

CC(CO)N1C(=O)[C@@H]2C3C(=O)OCCC/C=C\[C@H]3OC23C=CCN(CCN2CCOCC2)C(=O)[C@@H]13 (some centres not stated)    -0.523
C=C(/C(=C/C[C@H](OC(=O)c1ccncc1)c1ccc(OCCO)cc1)c1cc(C(=O)OC)ccc1OC)C(C)C    -0.357
COc1ccc([C@H]2C[C@H]3C(Br)=C[C@@]2(CO)C(=O)[C@]32CO2)cc1    0.601
O=C(CS)NCCCCCNC(=O)[C@H]1C[C@H]2C(=O)NCC(=O)N2[C@H]1c1ccc(O)cc1    0.612
COCCOC(=O)N1C(=O)[C@@]2(c3ccccc31)[C@H](C(N)=O)[C@H]1C(=O)O[C@H](c3ccccc3)[C@H](c3ccccc3)N1[C@@H]2c1ccc(O)cc1    -1.65
COCC(=C=CC[C@@H](O)c1ccc(OCCO)cc1)C[C@@H](O)c1ccccn1    -0.501

Now consider the entry below.
// query Tell me the measured z-score of CS(=O)(=O)CCOC(=O)C1=CC(CCCO)=CC(c2ccc(CN3CCCC3)cc2)N(Cc2cccc(OC(F)(F)F)c2)C=C1C(=O)OCCS(C)(=O)=O (configuration not stated) , please.
// result -2.68
